Cited source: patent US20230357429A1

# Tgt: T1, Human TROP2 ECD (31-274 AA), biotinylated (human, UniProt P09758 31-274, biotinylated (site not stated))
# T1 construct: also called tumor-associated calcium signal transducer 2; Human TROP2-biotin
# T1 sequence: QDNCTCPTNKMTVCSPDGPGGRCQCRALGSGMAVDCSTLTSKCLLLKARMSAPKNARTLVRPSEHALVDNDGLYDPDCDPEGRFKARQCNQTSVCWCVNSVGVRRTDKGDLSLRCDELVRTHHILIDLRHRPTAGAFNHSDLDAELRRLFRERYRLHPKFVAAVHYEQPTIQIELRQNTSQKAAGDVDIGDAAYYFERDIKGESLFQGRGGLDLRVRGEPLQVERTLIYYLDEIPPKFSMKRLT
# Assay Summary: ELISA: biotinylated TROP2 captured on neutravidin plate, Fab titrated, HRP secondary antibody
Result Type: pEC50
A value of pEC50 is the negative decimal logarithm of a concentration given in moles per litre.

- Binder: "TBD-11 (anti-TROP2 Fab, HC R98A) (Fab, V domains shown, also called TBD-11 (HC R98A mutant)) VH: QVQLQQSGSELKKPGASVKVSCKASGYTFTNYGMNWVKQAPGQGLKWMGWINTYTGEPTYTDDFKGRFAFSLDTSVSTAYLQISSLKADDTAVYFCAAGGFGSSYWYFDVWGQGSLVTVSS VL: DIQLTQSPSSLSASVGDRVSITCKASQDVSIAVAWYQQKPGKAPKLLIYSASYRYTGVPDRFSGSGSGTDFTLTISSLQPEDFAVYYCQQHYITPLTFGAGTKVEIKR"
  Reported Result: 8.42

# get_value(readout='pEC50', item= TBD-9 (anti-TROP2 Fab, LC L96A) (Fab, V domains shown) VH: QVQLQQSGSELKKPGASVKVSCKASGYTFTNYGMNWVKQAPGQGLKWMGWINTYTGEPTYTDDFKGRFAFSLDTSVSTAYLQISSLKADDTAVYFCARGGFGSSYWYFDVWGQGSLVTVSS VL: DIQLTQSPSSLSASVGDRVSITCKASQDVSIAVAWYQQKPGKAPKLLIYSASYRYTGVPDRFSGSGSGTDFTLTISSLQPEDFAVYYCQQHYITPATFGAGTKVEIKR )
7.77
